Target: FXR (Homo sapiens)
Construct: 5 μL of 20 nM FXR-LBD Complete Coregulator buffer G; purchased ThermoFisher PV4833
Sequence (Q96RI1 262-486 limits assumed): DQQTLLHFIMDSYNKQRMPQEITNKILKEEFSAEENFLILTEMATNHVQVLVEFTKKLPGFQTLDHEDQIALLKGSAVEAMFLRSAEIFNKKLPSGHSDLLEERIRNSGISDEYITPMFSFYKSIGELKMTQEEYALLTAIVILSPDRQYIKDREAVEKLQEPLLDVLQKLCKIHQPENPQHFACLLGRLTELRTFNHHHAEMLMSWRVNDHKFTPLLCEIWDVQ
Experiment: FXR antagonist screening by TR-FRET (LanthaScreen TR-FRET FXR co-activation assay kit)
Assay type: biochemical
Conditions: Table 1.1, FXR antagonistic activity; TR-FRET with CDCA; geometric means of at least two independent runs
Protocol: FXR activity was evaluated by time-resolved fluorescence resonance energy transfer (TR-FRET) assay, using LanthaScreen™ TR-FRET FXR co-activation assay kit (ThermoFisher, Cat. PV4833). […]
pIC50: −log10 of the molar value.
Property Name: pIC50

CCOC(=O)c1oc2ccc(S(=O)(=O)N(CCc3ccccc3)Cc3cccc(Br)c3)cc2c1C; 4.00 to 4.30
Cc1c(C(=O)O)oc2ccc(S(=O)(=O)N(CCc3ccccc3)Cc3ccc(F)cc3Cl)cc12; 4.30 to 5.00
CC(=O)N1CCN(c2ccccc2N(CCc2ccccc2)S(=O)(=O)c2ccc3oc(C(=O)O)c(C)c3c2)CC1; 4.00 to 4.30

Okay, next one:
Q) # input molecule: Cc1c(C(=O)O)oc2ccc(S(=O)(=O)N(CCc3ccccc3)Cc3cccc(Oc4ccccc4)c3)cc12 ; wanted: its pIC50
A) 4.30 to 5.00
